tgt: Anoctamin-1 (Mus musculus) (UniProt Q8BHY3)
Sequence (Q8BHY3 whole entry, looked up): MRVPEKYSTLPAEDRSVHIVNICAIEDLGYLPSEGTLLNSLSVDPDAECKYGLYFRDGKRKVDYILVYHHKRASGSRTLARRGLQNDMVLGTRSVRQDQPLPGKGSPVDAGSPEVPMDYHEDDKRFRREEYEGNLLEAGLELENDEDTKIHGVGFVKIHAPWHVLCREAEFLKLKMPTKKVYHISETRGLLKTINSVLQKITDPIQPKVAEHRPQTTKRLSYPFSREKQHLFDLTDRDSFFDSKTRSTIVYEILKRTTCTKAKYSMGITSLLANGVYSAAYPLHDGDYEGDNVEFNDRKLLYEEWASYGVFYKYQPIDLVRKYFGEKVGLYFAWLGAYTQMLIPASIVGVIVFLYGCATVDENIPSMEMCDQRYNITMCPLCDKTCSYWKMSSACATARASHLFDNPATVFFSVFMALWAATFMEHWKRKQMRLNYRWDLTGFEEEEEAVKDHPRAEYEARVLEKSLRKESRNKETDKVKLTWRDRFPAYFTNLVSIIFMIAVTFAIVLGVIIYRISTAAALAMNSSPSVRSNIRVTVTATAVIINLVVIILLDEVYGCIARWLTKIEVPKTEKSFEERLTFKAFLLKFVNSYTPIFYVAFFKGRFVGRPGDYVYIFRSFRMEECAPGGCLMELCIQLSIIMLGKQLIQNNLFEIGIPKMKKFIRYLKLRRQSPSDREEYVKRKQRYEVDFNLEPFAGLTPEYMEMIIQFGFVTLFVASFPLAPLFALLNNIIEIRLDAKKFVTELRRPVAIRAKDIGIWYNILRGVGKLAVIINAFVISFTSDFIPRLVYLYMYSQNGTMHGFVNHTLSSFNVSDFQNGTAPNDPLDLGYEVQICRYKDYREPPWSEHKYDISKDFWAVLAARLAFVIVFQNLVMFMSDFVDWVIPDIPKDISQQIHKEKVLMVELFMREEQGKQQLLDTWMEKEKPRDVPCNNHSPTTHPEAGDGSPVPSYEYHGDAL
experimental.protocol: blockers of mouse ANO1 Ca-activated Cl channel – cell-based, HTS, primary screen (AID 588511);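 on normalized B-score (activity score, 25-100; higher = stronger inhibition): score derived from kinetic fluorescence span divided by baseline fluorescence per well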
test.settings: HEK293 TMEM16A/YFP iodide influx fluorescence, ionomycin; at 10 µM
In all, about 310,000 compounds went through this assay and about 3,600 (1.2%) were called active. This is one part of a sample in which actives are shown more often than they occur.
attribute.measured: normalized B-score (activity score, 25-100; higher = stronger inhibition)

molecule: CCOC(=O)C1Nc2ccc(C(F)(F)F)cc2C2C=CCC12 (configuration not stated)
tgt: Anoctamin-1 (Mus musculus) (UniProt Q8BHY3)
result: inactive
//
molecule: COc1cc(CC(=O)NCc2cccs2)cc(OC)c1OC
tgt: Anoctamin-1 (Mus musculus) (UniProt Q8BHY3)
result: inactive
//
molecule: Cc1ccc(S(=O)(=O)NC(=O)Nc2nc(-c3ccc(F)c(F)c3)cs2)cc1
tgt: Anoctamin-1 (Mus musculus) (UniProt Q8BHY3)
result: inactive
//
molecule: O=C1CC(C(F)(F)C(F)(F)C(F)(F)C(F)(F)F)=Nc2ccccc2N1
tgt: Anoctamin-1 (Mus musculus) (UniProt Q8BHY3)
result: inactive
//
molecule: COc1ccc(-c2csc(NC(=O)COC(=O)Cc3ccc(Cl)cc3Cl)n2)cc1
tgt: Anoctamin-1 (Mus musculus) (UniProt Q8BHY3)
result: inactive
//
molecule: Cc1cc(C=O)c(C)n1-c1ccc(NC2CCCCC2)c([N+](=O)[O-])c1
tgt: Anoctamin-1 (Mus musculus) (UniProt Q8BHY3)
result: 100 (active)
//
molecule: Cc1ccc(-c2csc(-c3c[nH]c4ccccc34)n2)cc1
tgt: Anoctamin-1 (Mus musculus) (UniProt Q8BHY3)
result: 100 (active)
//
molecule: Cc1ccc(-c2noc(CSc3nnnn3-c3ccccc3)n2)cc1
tgt: Anoctamin-1 (Mus musculus) (UniProt Q8BHY3)
result: 100 (active)
//
molecule: Cc1ccc(-c2noc(CSc3nnc(-c4cccs4)n3C)n2)cc1
tgt: Anoctamin-1 (Mus musculus) (UniProt Q8BHY3)
result: inactive
//
molecule: COc1ccc(Cl)cc1NC(=O)CN(C)C(=O)c1cc2ccccc2cc1OC
tgt: Anoctamin-1 (Mus musculus) (UniProt Q8BHY3)
result: inactive
//
molecule: Cc1csc(=Nc2ccccc2)n1CCO
tgt: Anoctamin-1 (Mus musculus) (UniProt Q8BHY3)
result: inactive
//
molecule: CCCCn1c(SCc2ncc(-c3ccccc3)o2)nc2cc(S(N)(=O)=O)ccc21
tgt: Anoctamin-1 (Mus musculus) (UniProt Q8BHY3)
result: 25 (active)
//
molecule: CC(C)C(=O)Nc1cccc(NC(=S)NC(=O)C(c2ccccc2)c2ccccc2)c1
tgt: Anoctamin-1 (Mus musculus) (UniProt Q8BHY3)
result: inactive
//
molecule: CCCCNC(=O)CSc1nc2n[nH]c(C)c2c(=N)n1-c1cccc(Cl)c1C
tgt: Anoctamin-1 (Mus musculus) (UniProt Q8BHY3)
result: 25 (active)
//
molecule: Clc1ccc(-c2nnc(SCc3nc4ccccc4s3)o2)cc1
tgt: Anoctamin-1 (Mus musculus) (UniProt Q8BHY3)
result: inactive
//
molecule: Cc1csc(=NC(=O)c2ccccc2)n1CCO
tgt: Anoctamin-1 (Mus musculus) (UniProt Q8BHY3)
result: inactive
//
molecule: COc1cc(CC(=O)Nc2nc(-c3ccc(F)c(F)c3)cs2)cc(OC)c1OC
tgt: Anoctamin-1 (Mus musculus) (UniProt Q8BHY3)
result: 25 (active)
//
molecule: Cc1ccc(-c2csc(-c3cc(C)on3)n2)cc1
tgt: Anoctamin-1 (Mus musculus) (UniProt Q8BHY3)
result: inactive
//
molecule: CCCc1ccc(-c2csc(NC(=O)Cc3cccs3)n2)cc1
tgt: Anoctamin-1 (Mus musculus) (UniProt Q8BHY3)
result: inactive
//
molecule: Cc1ccc(C)c(N2CCN(C(=O)CCCCn3c(=O)[nH]c4ccccc4c3=O)CC2)c1
tgt: Anoctamin-1 (Mus musculus) (UniProt Q8BHY3)
result: 25 (active)
//
molecule: COc1cccc(-n2c(SCC(=O)NC3CCCCC3)nc3n[nH]c(C)c3c2=N)c1
tgt: Anoctamin-1 (Mus musculus) (UniProt Q8BHY3)
result: inactive
//
molecule: CCn1c(SCC(=O)NCC2CCCO2)nc2cc(S(=O)(=O)N3CCCCC3)ccc21 (configuration not stated)
tgt: Anoctamin-1 (Mus musculus) (UniProt Q8BHY3)
result: inactive

* * *

tgt: Anoctamin-1 (Mus musculus)
experimental.protocol: blockers of mouse ANO1 Ca-activated Cl channel – cell-based, HTS, primary screen (AID 588511)
test.settings: HEK293 TMEM16A/YFP iodide influx fluorescence, ionomycin; at 10 µM
In all, about 310,000 compounds went through this assay and about 3,600 (1.2%) were called active.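 The calls were made as follows: active = ratio plate-corrected score three or more library SD toward inhibition, starting fluorescence score within five deviations; inactive = the rest.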 This is one part of a sample in which actives are shown more often than they occur.
Possible outcomes: TRUE for active, FALSE for inactive

compound: O=C(CC(O)(C(F)(F)F)C(F)(F)F)Nc1ccc(Cl)c(Cl)c1
assigned.label: TRUE
--
compound: CCSc1nnc(-c2cc3c(s2)-c2ccccc2CC3)o1
assigned.label: FALSE
--
compound: CCCOc1cccc(C(=O)NCCCNC(=O)c2cccnc2)c1
assigned.label: FALSE
--
compound: Fc1ccc(CSc2nnc(-c3cc4c(s3)-c3ccccc3CC4)o2)cc1
assigned.label: TRUE
--
compound: O=C(Cc1ccc(Cl)c(Cl)c1)Nc1ccc(SC(F)F)cc1
assigned.label: FALSE
--
compound: CN(C)C(=O)CCC(=O)N1CCCCC1C(=O)Nc1ccc(Oc2ccccc2F)cc1 (stereo unspecified)
assigned.label: FALSE
--
compound: Cc1ccc(C2(C(F)(F)F)N=C3Sc4cc(C)cc(C)c4N3C(=O)N2)cc1 (stereo unspecified)
assigned.label: FALSE
--
compound: O=C(CC1SCCNC1=O)Nc1ccc(Cl)c(Cl)c1 (stereo unspecified)
assigned.label: FALSE
--
compound: Cc1cc(C)c(S(=O)(=O)N2CCOCC2)cc1C
assigned.label: FALSE
--
compound: COc1ccc(C(=O)Nc2cc(C)c(NC(=O)c3ccccc3OC)cn2)cc1
assigned.label: FALSE
--
compound: CC1CCN(C(=O)CN(c2ccc(Oc3ccccc3)cc2)S(C)(=O)=O)CC1
assigned.label: FALSE

* * *

tgt: Anoctamin-1 (Mus musculus)
experimental.protocol: blockers of mouse ANO1 Ca-activated Cl channel – cell-based, HTS, primary screen (AID 588511)
test.settings: HEK293 TMEM16A/YFP iodide influx fluorescence, ionomycin; at 10 µM
Out of some 310,000 compounds screened, about 3,600 (1.2%) were called active.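 How the source made its calls: active means ratio plate-corrected score three or more library SD toward inhibition, starting fluorescence score within five deviations; inactive means the rest.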 The sample holds actives, similar compounds and a random draw of the others, so the mix is not that of the screen.
Possible outcomes: true (1) (active), false (0) (inactive)

compound: CC1(N2CCOCC2)CC2(O)C(=[N+]1[O-])CCc1nonc12 (stereo not given)
tgt: Anoctamin-1 (Mus musculus)
assigned.label: false (0)
//
compound: COc1cc(C)c(C(C)C)cc1S(=O)(=O)n1ccnc1
tgt: Anoctamin-1 (Mus musculus)
assigned.label: false (0)
//
compound: COc1cccc(OC)c1C(=O)N1CCN(Cc2cccnc2)CC1
tgt: Anoctamin-1 (Mus musculus)
assigned.label: false (0)
//
compound: OCC[C@H]1C[C@@H](O)[C@H](O)[C@@]2(OCCc3ccccc32)O1
tgt: Anoctamin-1 (Mus musculus)
assigned.label: false (0)
//
compound: O=C(Nc1cc(-c2ccccc2)nn1-c1ccccc1F)c1ccc([N+](=O)[O-])cc1
tgt: Anoctamin-1 (Mus musculus)
assigned.label: false (0)
//
compound: COCCn1c(Cc2cccn2C)nnc1SCC(=O)Nc1nccs1
tgt: Anoctamin-1 (Mus musculus)
assigned.label: false (0)
//
compound: Cn1cnc(C(F)(F)F)c1-c1ccc([N+](=O)[O-])cc1
tgt: Anoctamin-1 (Mus musculus)
assigned.label: false (0)
//
compound: COc1ccc(N(C)S(=O)(=O)c2ccc3c(c2)CC(C)N3C(=O)C2CC2)c(OC)c1 (stereo not given)
tgt: Anoctamin-1 (Mus musculus)
assigned.label: false (0)
//
compound: COc1cccc(CNS(=O)(=O)c2ccc3c(c2)CC(C)N3C(=O)C2CCC2)c1 (stereo not given)
tgt: Anoctamin-1 (Mus musculus)
assigned.label: true (1)
//
compound: COc1cccc(CNS(=O)(=O)c2ccc3c(c2)CC(C)N3C(C)=O)c1 (stereo not given)
tgt: Anoctamin-1 (Mus musculus)
assigned.label: false (0)

* * *

tgt: Anoctamin-1 (Mus musculus)
experimental.protocol: blockers of mouse ANO1 Ca-activated Cl channel – cell-based, HTS, primary screen (AID 588511)
test.settings: HEK293 TMEM16A/YFP iodide influx fluorescence, ionomycin; at 10 µM
Out of some 310,000 compounds screened, about 3,600 (1.2%) were called active.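 The calls were made as follows: active = ratio plate-corrected score three or more library SD toward inhibition, starting fluorescence score within five deviations; inactive = the rest.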 The entries come from a sample that favours actives as a whole.
Possible outcomes: active, inactive

molecule: CCCC(=O)Nc1ccccc1N1CCN(C(=O)c2ccccc2)CC1
assigned.label: active
//
molecule: Cc1ccc(O)c(/C=N/NC(=O)COc2ccc3c(C)cc(=O)oc3c2)c1
assigned.label: inactive
//
molecule: COc1ccc(C(=O)COC(=O)CNC(=O)c2cccs2)cc1Br
assigned.label: inactive
//
molecule: CCOC(=O)c1cc(NC(=O)c2cccnc2)ccn1
assigned.label: inactive
//
molecule: S=C(NCc1ccco1)Nc1ccc2c(c1)OCCO2
assigned.label: inactive
//
molecule: CCCCC(=O)Nc1ccccc1N1CCN(c2ccc(F)cc2)CC1
assigned.label: inactive
//
molecule: O=C(Nc1nc2ccccc2s1)c1ccc2c(c1)OCO2
assigned.label: inactive
//
molecule: O=C(NNC(=S)NCc1ccco1)C(c1ccccc1)c1ccccc1
assigned.label: inactive
//
molecule: COc1ccc(C(=O)CCc2ccccc2O)c(OC)c1
assigned.label: inactive
//
molecule: C[C@@H]1NC(=O)c2cc([N+](=O)[O-])cc(F)c2NCCC[C@@H](C(N)=O)NC(=O)[C@H](CC(N)=O)NC1=O
assigned.label: inactive
//
molecule: CCCCCC(O)c1cccc(OCc2ccc3ccccc3n2)c1 (stereo unspecified)
assigned.label: active
